# maps each entry to its melting point

Consider the reported melting point for these compounds:
                                   compound  parameter_measured         result
0  COc1cc2c(cc1OC(C)C)-c1c(-c3cncs3)nc(C(=O)N(C)C(C)(C)C)n1CC2 [Example 47e]       melting point  112 to 114 °C
1  COc1cc2c(cc1C(=O)NC(C)C)-c1c(-c3cccs3)nc(C(=O)N(C)C(C)(C)C)n1CC2       melting point  197 to 198 °C
2  COc1ccccc1-c1cc2c(cc1OC)CCn1c(C(=O)N(C)C(C)(C)C)nc(-c3cccs3)c1-2       melting point  188 to 189 °C

The compound identified as CCc1nnc(NC(=O)c2cc3c(cc2OC)CCn2c(C(=O)N(C)C(C)(C)C)nc(-c4cccs4)c2-3)s1 registered its melting point at 238 to 240 °C
